- Study system: Recombinant human Plk-1 (6×His) (Homo sapiens)
- Construct: 6xHis; made in house; host or cells: baculovirus-infected Hi5 insect cells
- Sequence (P53350 whole entry): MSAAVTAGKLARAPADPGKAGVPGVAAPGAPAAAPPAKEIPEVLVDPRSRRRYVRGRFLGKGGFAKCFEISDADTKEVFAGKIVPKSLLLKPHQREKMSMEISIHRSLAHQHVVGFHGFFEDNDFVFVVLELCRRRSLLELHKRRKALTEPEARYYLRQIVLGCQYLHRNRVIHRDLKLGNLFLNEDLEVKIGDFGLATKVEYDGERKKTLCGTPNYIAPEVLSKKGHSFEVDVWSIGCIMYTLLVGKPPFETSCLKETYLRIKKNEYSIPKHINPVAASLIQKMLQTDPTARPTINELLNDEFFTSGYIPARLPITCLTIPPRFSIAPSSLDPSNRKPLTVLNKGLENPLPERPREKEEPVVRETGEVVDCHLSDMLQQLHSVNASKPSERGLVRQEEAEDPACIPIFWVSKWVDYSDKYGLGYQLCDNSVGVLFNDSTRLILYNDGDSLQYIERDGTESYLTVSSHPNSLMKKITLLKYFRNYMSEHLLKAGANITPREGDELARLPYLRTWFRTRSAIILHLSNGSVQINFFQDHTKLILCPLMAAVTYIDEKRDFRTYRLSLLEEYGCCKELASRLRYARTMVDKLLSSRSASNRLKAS
- Run description: PLK enzyme assay
- Format: biochemical
- Conditions: Table 3, Esters; read-out: Inhibition of Plk-1 IC50
Endpoint: IC50 (nM)
Answers are plain numbers, in nM.

Prompt: Query: IC50; subject: C=CCOC(=O)C(C#N)=c1sc(=CNc2ccc(NC(=O)NCCN3CCCC3)cc2)c(=O)n1CC (mixture of isomers)
Completion: 23

====

- Study system: Recombinant human Plk-1 (6×His) (Homo sapiens)
- Construct: 6xHis; made in house; host or cells: baculovirus-infected Hi5 insect cells
- Run description: PLK enzyme assay
- Format: biochemical
- Conditions: Table 2, Amides; read-out: Inhibition of Plk-1 IC50
Endpoint: IC50 (nM)
Numbers only, in nM.

1) C#CCNC(=O)/C(C#N)=c1\sc(=CNc2ccc(OCCN(C)C)cc2)c(=O)n1CC [Example 307] ... 71

Now look at this entry.
Prompt: Query: IC50; subject: CCn1c(=O)c(=CNc2ccc(OCCN(C)C)cc2)s/c1=C(/C#N)C(=O)NCC(F)F [Example 310]
Completion: 74
